target: Sialic acid-binding Ig-like lectin 9 (Homo sapiens) (UniProt Q9Y336); experiment: Hs-Siglec9 ALPHAscreen SOP 20170721; design: scale not given: direction of the effect not stated beside the values; settings: 10 µM
Sequence (Q9Y336 whole entry): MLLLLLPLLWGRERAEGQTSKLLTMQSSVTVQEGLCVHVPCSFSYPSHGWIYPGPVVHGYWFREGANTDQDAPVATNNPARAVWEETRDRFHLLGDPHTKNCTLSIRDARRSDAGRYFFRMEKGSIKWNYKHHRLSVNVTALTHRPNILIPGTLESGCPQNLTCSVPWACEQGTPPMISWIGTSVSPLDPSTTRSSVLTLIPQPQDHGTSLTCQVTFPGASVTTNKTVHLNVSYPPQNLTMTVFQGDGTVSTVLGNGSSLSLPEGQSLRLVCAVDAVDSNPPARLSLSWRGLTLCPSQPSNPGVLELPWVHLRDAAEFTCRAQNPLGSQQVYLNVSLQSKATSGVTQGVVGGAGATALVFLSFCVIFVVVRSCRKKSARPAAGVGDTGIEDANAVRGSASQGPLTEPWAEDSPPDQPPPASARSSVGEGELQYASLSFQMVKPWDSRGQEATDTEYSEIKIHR
attribute_measured: Percent Effect (%)

[
  {
    "molecule": "Cc1c(I)cccc1C(=O)NCC1(CO)CC1",
    "tested_on": "Sialic acid-binding Ig-like lectin 9 (Homo sapiens) (UniProt Q9Y336)",
    "recorded_measurement": 13.5
  },
  {
    "molecule": "Cc1cnn(C2CCCN(C(=O)C3=NN(C)C(=O)CC3)C2)c1 (configuration not stated)",
    "tested_on": "Sialic acid-binding Ig-like lectin 9 (Homo sapiens) (UniProt Q9Y336)",
    "recorded_measurement": 11.8
  },
  {
    "molecule": "Cc1nc(C)n(C2CCCN(C(=O)c3ccc4c(c3)COC4)C2)n1 (configuration not stated)",
    "tested_on": "Sialic acid-binding Ig-like lectin 9 (Homo sapiens) (UniProt Q9Y336)",
    "recorded_measurement": 7.05
  },
  {
    "molecule": "Cc1ccccc1C1(CNC(=O)NCCc2nnc3n2CCC3)CC1",
    "tested_on": "Sialic acid-binding Ig-like lectin 9 (Homo sapiens) (UniProt Q9Y336)",
    "recorded_measurement": 5.17
  },
  {
    "molecule": "Cc1nn(C)c(Cl)c1C1CCCN1CC(=O)NCc1ccccn1 (configuration not stated)",
    "tested_on": "Sialic acid-binding Ig-like lectin 9 (Homo sapiens) (UniProt Q9Y336)",
    "recorded_measurement": -1.21
  },
  {
    "molecule": "Nc1nc(CN2CCOC(Cn3cncn3)C2)nc2ccccc12 (configuration not stated)",
    "tested_on": "Sialic acid-binding Ig-like lectin 9 (Homo sapiens) (UniProt Q9Y336)",
    "recorded_measurement": -2.89
  },
  {
    "molecule": "CCN1CCN(C2CCN(Cc3ncc(C(C)(C)C)o3)CC2)C1=O",
    "tested_on": "Sialic acid-binding Ig-like lectin 9 (Homo sapiens) (UniProt Q9Y336)",
    "recorded_measurement": 7.85
  },
  {
    "molecule": "CC(C)c1ncc2c(n1)CN(Cc1nc(Cc3ccccc3)no1)CC2",
    "tested_on": "Sialic acid-binding Ig-like lectin 9 (Homo sapiens) (UniProt Q9Y336)",
    "recorded_measurement": 3.74
  },
  {
    "molecule": "O=C(NCCc1nnc2n1CCC2)NCC1(c2cccc(F)c2)CC1",
    "tested_on": "Sialic acid-binding Ig-like lectin 9 (Homo sapiens) (UniProt Q9Y336)",
    "recorded_measurement": -1.62
  },
  {
    "molecule": "COc1ccccc1CC(=O)NS(C)(=O)=O",
    "tested_on": "Sialic acid-binding Ig-like lectin 9 (Homo sapiens) (UniProt Q9Y336)",
    "recorded_measurement": 1.8
  },
  {
    "molecule": "Cc1nc2c(c(N3CC=CC3)n1)CCN(Cc1ccoc1)CC2",
    "tested_on": "Sialic acid-binding Ig-like lectin 9 (Homo sapiens) (UniProt Q9Y336)",
    "recorded_measurement": 4.88
  },
  {
    "molecule": "COC(=O)C(C)(C)NC(=O)C1CC(=O)N(C)C1 (configuration not stated)",
    "tested_on": "Sialic acid-binding Ig-like lectin 9 (Homo sapiens) (UniProt Q9Y336)",
    "recorded_measurement": 9.64
  }
]

Origin of measurements: ChEMBL document CHEMBL3988442
